These data points were gathered from paper PMC8364686.

Experiment: Plasma pharmacokinetics of BI 187004 after single oral doses (LC–MS/MS)
Details: male, human, plasma, po, 40 mg, BI 187004 plasma concentrations, 40 mg single oral, planned time 4 h, Mean
endpoint: concentration at 4 h (nM)
State just the number; it will be interpreted in nM.

Field request: concentration at 4 h | item: N#Cc1ccc2c(c1)[C@H]1CCCN(C(=O)c3ccc4[nH]cnc4c3)[C@H]1C2
1460

###

Test: Plasma pharmacokinetics of BI 187004 after single oral doses (LC–MS/MS)
Conditions: male, human, plasma, po, 160 mg, BI 187004 plasma concentrations, 160 mg single oral, planned time 6 h, Max
endpoint: concentration at 6 h (µM)
State just the number; it will be interpreted in µM.

Field request: concentration at 6 h | item: N#Cc1ccc2c(c1)[C@H]1CCCN(C(=O)c3ccc4[nH]cnc4c3)[C@H]1C2
5.32
